src = patent US11578055B2

System: target signal sequences plus 10 amino acids fused to Gaussia Luciferase
Experiment: Transiently Expressed Dox Induced Signal Sequence-Gluc Assay
Format: cell-based
Conditions: Target B7H3 signal peptide +10 amino acids; read-out: Signal Sequence-Gluc potency
Overview of reported pIC50 across a group of molecules:
Scale explanation: pIC50 corresponds to minus log10 of a concentration expressed in moles per litre.

COc1cc(F)ccc1N1CCN(S(=O)(=O)N2CCCN(CC3CCCCC3)CCCN(S(=O)(=O)c3ccc(N(C)C)cc3)C[C@H](C)C2)CC1 | 8.05

IN: Which measured pIC50 value corresponds to `C[C@H]1CN(S(=O)(=O)c2ccc(N(C)C)cc2)CCCN(CC2CCCCC2)CCCN(S(=O)(=O)N2CCc3cc(Cl)ccc3C2)C1` ?
OUT: 7.57

IN: Follow-up entry: `C[C@H]1CN(S(=O)(=O)c2ccc(N(C)C)cc2)CCCN(CC2CCCCC2)CCCN(S(=O)(=O)N2CCc3c(C#N)cccc3C2)C1`
OUT: 6.70

* * *

Overview of reported Liver Microsome Stability-% Left after 30 min w/ NADPH (%) Monkey across a group of compounds:
Test: In Vitro Microsome Stability Assay (monkey)
Type: in vitro ADME
Settings: monkey, 30 min, NADPH
Protocol: Potassium phosphate (423 μL of a 0.1 M solution) was added to 8-strip deep well tubes followed by human, mouse, rat, or monkey microsomes (25 μL of a 20 mg/mL solution). The tubes were then placed on ice and the test article (2 μL of a 0.25 mM solution in DMSO) was added. […] Liver microsome stability is assessed by the % remaining of compound at 30 min which is calculated using the following equation: [(AUCanalyteT=30/AUCIS)/(AUCanalyteT=0/AUCIS)]*100 […]
Please reply with the bare figure in % and do not write the unit itself.

Please review the entries below; each comes with its answer.
O=S(=O)(C1CCCCC1)N1CCCN(CC2CCCCC2)CCCN(S(=O)(=O)N2CCCCC2)CC2(CC2)C1 | 0.1
C=C1CN(S(=O)(=O)c2ccc(N(C)C)cc2)CCCN(CC2CCCCC2)CCCN(S(=O)(=O)N2CCC[C@@H](c3ccccc3)C2)C1 | 12
C=C1CN(S(=O)(=O)c2ccc(C)cc2)CCCN(Cc2ccccc2)CCCN(S(=O)(=O)c2ccc(C)cc2)C1 | 0.18

For the next question, use this compound.
IN: Which measured Liver Microsome Stability-% Left after 30 min w/ NADPH (%) Monkey value corresponds to `C=C1CN(S(=O)(=O)c2ccc(N(C)C)cc2)CCCN(CC2CCCCC2)CCCN(S(=O)(=O)N2CC=C(C3=CCCCC3)CC2)C1` ?
OUT: 57.1

* * *

System: GM-CSF
Experiment: Human PBMC Cytokine Assay: GM-CSF
Type: cell-based
Settings: anti-CD3/CD28 stimulation, 24 hours
endpoint: IC50 (nM)
Please reply with the bare figure in nM and do not write the unit itself.

Cc1ccccc1CN1CCCN(S(=O)(=O)c2ccc(N(C)C)cc2)C[C@H](C)CN(S(=O)(=O)N2CCc3cc(Cl)ccc3C2)CCC1 [A133] | 404
C[C@H]1CN(S(=O)(=O)c2ccc(N(C)C)cc2)CCCN(CC2CCCCC2)CCCN(S(=O)(=O)N2CCc3cc(Cl)ccc3C2)C1 [A87] | 165
COc1cc(F)ccc1N1CCN(S(=O)(=O)N2CCCN(CC3CCCCC3)CCCN(S(=O)(=O)c3ccc(N(C)C)cc3)C[C@H](C)C2)C[C@H]1C [A177] | 19

For the next question, use this compound.
IN: Which measured IC50 value corresponds to COc1cc(F)ccc1N1CCN(S(=O)(=O)N2CCCN(CC3CCCCC3)CCCN(S(=O)(=O)c3ccc(N(C)C)cc3)C[C@H](C)C2)CC1 [A137] ?
OUT: 25
